target: NAD-dependent protein deacetylase sirtuin-1 (Homo sapiens, UniProt Q96EB6); assay: Inhibition of recombinant human SIRT1 assessed as inhibition of deacetylase activity using ZMAL as substrate measured after 4 hrs by Fluor de Lys assay
Sequence (Q96EB6 whole entry): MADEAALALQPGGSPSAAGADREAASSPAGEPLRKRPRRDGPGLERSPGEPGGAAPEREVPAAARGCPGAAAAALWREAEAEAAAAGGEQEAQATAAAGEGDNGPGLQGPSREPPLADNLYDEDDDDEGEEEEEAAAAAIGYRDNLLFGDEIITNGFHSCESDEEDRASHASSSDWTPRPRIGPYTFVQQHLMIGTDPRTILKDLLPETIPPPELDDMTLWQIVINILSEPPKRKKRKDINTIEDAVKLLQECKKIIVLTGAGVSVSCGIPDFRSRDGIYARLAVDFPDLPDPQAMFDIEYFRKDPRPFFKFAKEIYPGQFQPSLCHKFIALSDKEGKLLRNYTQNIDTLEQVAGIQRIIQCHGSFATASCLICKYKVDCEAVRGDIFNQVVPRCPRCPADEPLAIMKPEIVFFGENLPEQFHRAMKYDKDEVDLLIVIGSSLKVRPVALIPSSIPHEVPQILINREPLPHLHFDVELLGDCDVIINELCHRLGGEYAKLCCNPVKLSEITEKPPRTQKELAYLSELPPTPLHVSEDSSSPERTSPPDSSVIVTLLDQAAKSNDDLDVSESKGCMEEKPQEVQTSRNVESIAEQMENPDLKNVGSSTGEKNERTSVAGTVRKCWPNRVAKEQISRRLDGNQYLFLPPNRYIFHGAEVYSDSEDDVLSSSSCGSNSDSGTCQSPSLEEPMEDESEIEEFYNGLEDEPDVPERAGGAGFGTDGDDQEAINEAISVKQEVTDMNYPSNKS
pIC50: −log10 of the molar value.
QUANTITY MEASURED: pIC50

[[record]]
compound_structure_string = "O=C1CC(=S)NC(=O)/C1=C/c1cc2ccccc2[nH]1"
recorded_result = 5.23


----------
biological target: NAD-dependent protein deacetylase sirtuin-1 (Homo sapiens, UniProt Q96EB6); assay: Inhibition of recombinant SIRT1 (unknown origin) assessed as deacetylation activity using acetylated p53 as substrate measured after 2 hrs by Fluor de Lys assay
QUANTITY MEASURED: IC50 (nM)

[[record]]
molecule = "COc1ccc2[nH]c3c(c2c1)CCCC3C(=O)O (stereo not drawn)"
recorded_result = 2800

[[record]]
molecule = "CN(C)/C=N/C(=O)C1CCCc2c1[nH]c1ccc(Cl)cc21 (stereo not drawn)"
recorded_result = 149

[[record]]
molecule = "Cc1ccc2[nH]c3c(c2c1)CCCC3C(=O)O (stereo not drawn)"
recorded_result = 3100

